# EXPERIMENTAL PROTOCOL: Cytotoxicity against human breast cancer cells after 48 hrs
# Type: functional
# MEASUREMENT PARAMETERS: Cancer cell lines, read-out: LC50 (the source's name)
Define the label as Fulfilled when CC50 is strictly less than 50 µM and as Not fulfilled in all remaining cases.

Example results:
> print(dat)
                           structure.smiles          label
1  O=C1Nc2ccc(Cl)cc2/C1=C\c1c(Cl)n(CCCc2ccccc2)c2ccccc12      Fulfilled
2  COc1cc2c(/C=C3/C(=O)Nc4ccc(Cl)cc43)c(Cl)n(Cc3cc(OC)c(OC)c(OC)c3)c2cc1C      Fulfilled
3  COc1cc2c(c(OC)c1OC)/C(=C\c1c(Cl)[nH]c3ccccc13)C(=O)N2  Not fulfilled

**Query** Hello, I'm reviewing records and need to know if CC50 of COc1cc2c(/C=C3/C(=O)Nc4cccc(Cl)c43)c(Cl)n(Cc3cc(OC)c(OC)c(OC)c3)c2cc1C is below 50 µM. Could you check?
**Result** Not fulfilled

**Query** CC50 under 50 µM? Item: COc1c(/C=C2/C(=O)Nc3ccccc32)c2ccccc2n1-c1ccccc1
**Result** Fulfilled

**Query** Lab log: compare recorded CC50 with 50 µM; is it strictly lower for COc1ccc2c(c1)/C(=C\c1c(OC)n(-c3ccccc3)c3ccccc13)C(=O)N2 ?
**Result** Fulfilled

**Query** Strictly below 50 µM in CC50? COc1ccc(OC)c2c1NC(=O)/C2=C/c1c(Cl)[nH]c2ccccc12
**Result** Not fulfilled

**Query** Quick check: CC50 of COc1c(/C=C2/C(=O)Nc3ccc(Cl)cc32)c2ccccc2n1-c1ccccc1 under 50 µM?
**Result** Not fulfilled

----------
# EXPERIMENTAL PROTOCOL: Cytotoxicity against human CNS cancer cells after 48 hrs
# Format: functional
# MEASUREMENT PARAMETERS: Cancer cell lines, read-out: LC50 (the source's name)
Response field label takes MET when CC50 is strictly below 50 µM and NOT MET in all other cases.

> print(dat)
                           structure.smiles    label
1  COc1cc2c(c(OC)c1OC)/C(=C\c1c(Cl)[nH]c3ccccc13)C(=O)N2      MET
2  COc1c(/C=C2/C(=O)Nc3ccccc32)c2ccccc2n1-c1ccccc1      MET
3  COc1cc2c(/C=C3/C(=O)Nc4ccc(Cl)cc43)c(Cl)n(Cc3cc(OC)c(OC)c(OC)c3)c2cc1C      MET
4  O=C1Nc2ccccc2/C1=C\c1c(Cl)n(Cc2ccccc2)c2ccccc12  NOT MET
5  COc1ccc(CCn2c(Cl)c(/C=C3/C(=O)Nc4ccccc43)c3ccccc32)cc1  NOT MET

**Query** Could you please tell me whether CC50 recorded for COc1cc2c(/C=C3/C(=O)Nc4cccc(Cl)c43)c(Cl)n(Cc3cc(OC)c(OC)c(OC)c3)c2cc1C is less than 50 µM?
**Result** MET

**Query** Strictly below 50 µM in CC50? O=C1Nc2ccc(O)cc2/C1=C\c1c(Cl)n(CCc2ccccc2)c2ccccc12
**Result** NOT MET

**Query** Dear colleague, could you confirm whether CC50 of COc1ccc(OC)c2c1NC(=O)/C2=C/c1c(Cl)[nH]c2ccccc12 falls below 50 µM? Thanks.
**Result** MET

**Query** In the record for COc1c(/C=C2/C(=O)Nc3ccc(Cl)cc32)c2ccccc2n1-c1ccccc1 , is CC50 less than 50 µM?
**Result** NOT MET

**Query** A record lists COc1ccc2c(c1)/C(=C\c1c(OC)n(-c3ccccc3)c3ccccc13)C(=O)N2 . Is its CC50 below 50 µM?
**Result** MET

----------
# EXPERIMENTAL PROTOCOL: Cytotoxicity against human NSCLC cells after 48 hrs
# Assay type: functional
Decision: LC50 beneath 30 µM gives y; LC50 meeting or exceeding 30 µM gives n.

Solved cases (4 shown):
> print(dat)
                           structure.smiles  label
1  COc1ccc(OC)c2c1NC(=O)/C2=C/c1c(Cl)[nH]c2ccccc12      n
2  COc1c(/C=C2/C(=O)Nc3ccc(Cl)cc32)c2ccccc2n1-c1ccccc1      n
3  COc1c(/C=C2/C(=O)Nc3ccccc32)c2ccccc2n1-c1ccccc1      y
4  COc1cc2c(/C=C3/C(=O)Nc4ccc(Cl)cc43)c(Cl)n(Cc3cc(OC)c(OC)c(OC)c3)c2cc1C      y

Attention now shifts to the item below.
**Query** Does COc1cc2c(/C=C3/C(=O)Nc4cccc(Cl)c43)c(Cl)n(Cc3cc(OC)c(OC)c(OC)c3)c2cc1C have LC50 strictly under 30 µM?
**Result** n

----------
# EXPERIMENTAL PROTOCOL: Cytotoxicity against human renal cancer cells after 48 hrs
# Format: functional
# MEASUREMENT PARAMETERS: Cancer cell lines
METRIC NAME: log10 of GI50 (log10 of the value in µM)
The common logarithm of GI50 in µM is what is listed.

COMPOUND	VALUE REPORTED
COc1ccc2c(c1)/C(=C\c1c(Cl)n(Cc3cc(OC)c(OC)c(OC)c3)c3cc(C)c(OC)cc13)C(=O)N2	1.47
COc1cc2c(/C=C3/C(=O)Nc4ccc(Cl)cc43)c(Cl)n(Cc3cc(OC)c(OC)c(OC)c3)c2cc1C	0.47
COc1ccc(CCn2c(Cl)c(/C=C3/C(=O)Nc4ccccc43)c3ccccc32)cc1	-0.32
COc1ccc2c(c1)/C(=C\c1c(Cl)n(C/C=C/c3ccccc3)c3ccccc13)C(=O)N2	0.28
COc1ccc2c(c1)/C(=C\c1c(OC)n(-c3ccccc3)c3ccccc13)C(=O)N2	0.36

According to the records, this compound COc1cc2c(c(OC)c1OC)/C(=C\c1c(Cl)[nH]c3ccccc13)C(=O)N2 displays log10 of GI50 of 0.13

# log10 of GI50 (compound: COc1c(/C=C2/C(=O)Nc3ccccc32)c2ccccc2n1-c1ccccc1 ) is 0.05

Noted for O=C1/C(=C/c2c(Cl)[nH]c3ccccc23)c2ccccc2N1Cc1ccccc1 : its log10 of GI50 reads 0.72

// sample COc1cc2c(/C=C3/C(=O)Nc4cccc(Cl)c43)c(Cl)n(Cc3cc(OC)c(OC)c(OC)c3)c2cc1C , its log10 of GI50 was 0.51

log10 of GI50 in this record for O=C1Nc2ccc(Cl)cc2/C1=C\c1c(Cl)n(CCCc2ccccc2)c2ccccc12 : 0.27

Sample COc1c(/C=C2/C(=O)Nc3ccc(Cl)cc32)c2ccccc2n1-c1ccccc1 ; log10 of GI50 observed: 0.93

Item: COc1cc2c(/C=C3/C(=O)Nc4ccc(O)cc43)c(Cl)n(Cc3cc(OC)c(OC)c(OC)c3)c2cc1C | log10 of GI50: 0.44

According to the records, this compound O=C1Nc2ccc(O)cc2/C1=C\c1c(Cl)n(CCc2ccccc2)c2ccccc12 displays log10 of GI50 of 0.97

Memo: O=C1Nc2ccccc2/C1=C\c1c(Cl)n(CCCc2ccccc2)c2ccccc12 , reported log10 of GI50: 1.14

The compound listed as O=C1Nc2ccccc2/C1=C\c1c(Cl)n(Cc2ccccc2)c2ccccc12 has a reported log10 of GI50 of 1.31

----------
# EXPERIMENTAL PROTOCOL: Cytotoxicity against human NSCLC cells after 48 hrs
# Type: functional
Counter-ions that a name gives are not always drawn.
GI50 less than 2 µM is TRUE; GI50 greater than or equal to 2 µM is FALSE.

Answered examples (2):
COMPOUND	LABEL
O=C1Nc2ccc(Cl)cc2/C1=C\c1c(Cl)n(CCCc2ccccc2)c2ccccc12	FALSE
COc1cc2c(/C=C3/C(=O)Nc4ccc(Cl)cc43)c(Cl)n(Cc3cc(OC)c(OC)c(OC)c3)c2cc1C	FALSE

**Query** Does the reported GI50 of COc1ccc2c(c1)/C(=C\c1c(Cl)n(Cc3cc(OC)c(OC)c(OC)c3)c3cc(C)c(OC)cc13)C(=O)N2 stay below 2 µM?
**Result** FALSE

**Query** Regarding COc1cc2c(c(OC)c1OC)/C(=C\c1c(Cl)[nH]c3ccccc13)C(=O)N2 , kindly confirm whether its GI50 is beneath 2 µM.
**Result** TRUE

**Query** Just wondering, is GI50 of COc1ccc(OC)c2c1NC(=O)/C2=C/c1c(Cl)[nH]c2ccccc12 below 2 µM?
**Result** FALSE

**Query** Say whether its GI50 is strictly beneath 2 µM. Entry: COc1ccc2c(c1)/C(=C\c1c(Cl)n(C/C=C/c3ccccc3)c3ccccc13)C(=O)N2
**Result** FALSE

**Query** Below 2 µM on GI50? Entry O=C1Nc2ccccc2/C1=C\c1c(Cl)n(Cc2ccccc2)c2ccccc12
**Result** FALSE

**Query** Bench note: check whether COc1cc2c(cc1C)NC(=O)/C2=C/c1c(Cl)n(Cc2cc(OC)c(OC)c(OC)c2)c2cc(C)c(OC)cc12 shows GI50 below 2 µM
**Result** FALSE

**Query** Please state whether GI50 is below 2 µM for CC[C@]1(O)C[C@H]2CN(CCc3c([nH]c4ccccc34)[C@@](C(=O)OC)(c3cc4c(cc3OC)N(C=O)[C@H]3[C@@](O)(C(=O)OC)[C@H](OC(C)=O)[C@]5(CC)C=CCN6CC[C@]43[C@@H]65)C2)C1 [VINCRISTINE SULFATE]
**Result** TRUE

**Query** For this compound, is GI50 lower than 2 µM? COc1cc2c(/C=C3/C(=O)Nc4cccc(Cl)c43)c(Cl)n(Cc3cc(OC)c(OC)c(OC)c3)c2cc1C
**Result** FALSE

**Query** Is GI50 of COc1cc2c(/C=C3/C(=O)Nc4ccc(O)cc43)c(Cl)n(Cc3cc(OC)c(OC)c(OC)c3)c2cc1C strictly below 2 µM?
**Result** FALSE

**Query** Problem: For the compound COc1c(/C=C2/C(=O)Nc3ccccc32)c2ccccc2n1-c1ccccc1 , is GI50 under 2 µM?
**Result** FALSE

**Query** Identify whether the compound O=C1Nc2ccc(O)cc2/C1=C\c1c(Cl)n(CCc2ccccc2)c2ccccc12 records GI50 below 2 µM.
**Result** FALSE

**Query** # check: GI50 < 2 µM for COc1ccc2c(c1)/C(=C\c1c(OC)n(-c3ccccc3)c3ccccc13)C(=O)N2
**Result** FALSE

**Query** hey, is GI50 for COc1c(/C=C2/C(=O)Nc3ccc(Cl)cc32)c2ccccc2n1-c1ccccc1 lower than 2 µM or not?
**Result** FALSE

**Query** Dear colleague, could you confirm whether GI50 of COc1ccc(CCn2c(Cl)c(/C=C3/C(=O)Nc4ccccc43)c3ccccc32)cc1 falls below 2 µM? Thanks.
**Result** TRUE

**Query** Check if GI50 falls below 2 µM for O=C1Nc2ccccc2/C1=C\c1c(Cl)n(CCCc2ccccc2)c2ccccc12 .
**Result** FALSE

**Query** Please let me know if O=C1/C(=C/c2c(Cl)[nH]c3ccccc23)c2ccccc2N1Cc1ccccc1 shows GI50 below 2 µM.
**Result** FALSE
